The following molecules are listed with their measured TGI values.
System: LOX IMVI melanoma
EXPERIMENT DESCRIPTION: NCI tumour cell line growth inhibition, 48 h

// worked examples, TGI included
In [3]: df
Out[3]:
                                   molecule  endpoint_result
0                Nc1ccccc1S(=O)(=O)c1ccccc1         > 100 µM
1  CNCCCn1c2c(c3ccc([N+](=O)[O-])cc3c1=O)C(=O)c1cc(OC)cnc1-2         0.136 µM
2  CCC1CN2C(=N1)c1ccccc1-c1cc(Cl)ccc12 (stereo not given)          4.44 µM
3     NCCCCc1cc(O)c2c(c1O)C(=O)c1ccccc1C2=O          21.2 µM
4     Cc1cc2c(C)nn(Cc3ccccc3)c2c(C(N)=O)c1C         > 100 µM

Request: Entry O=C(NC(=O)c1cn(CCN(CCO)C(=O)NCCCCCCNC(=O)N(CCO)CCn2cc(C(=O)NC(=O)OCc3ccccc3)c(=O)[nH]c2=O)c(=O)[nH]c1=O)OCc1ccccc1 : reported TGI = ?
Result: > 100 µM

Request: Quick one: TGI for CC(C)(C)c1cc(C2=NNC(c3ccccc3)C2)cc(C(C)(C)C)c1O (stereo not given) ?
Result: 29.6 µM

Request: Could you share which TGI value was measured for COC(=O)c1ccccc1OCc1cc(=O)oc2ccc(C)cc12 ?
Result: > 100 µM

Request: Query: TGI; subject: O=CN/C=C/c1cccc(O)c1
Result: 69.1 µM

Request: Given the entry O=C(O)c1cc2ccc3ccccc3c2oc1=O , report its measured TGI.
Result: > 100 µM
